- Assayed system: hepatic lipase (HL) (Homo sapiens (Human))
- Sequence (P11150 23-499, species assumed): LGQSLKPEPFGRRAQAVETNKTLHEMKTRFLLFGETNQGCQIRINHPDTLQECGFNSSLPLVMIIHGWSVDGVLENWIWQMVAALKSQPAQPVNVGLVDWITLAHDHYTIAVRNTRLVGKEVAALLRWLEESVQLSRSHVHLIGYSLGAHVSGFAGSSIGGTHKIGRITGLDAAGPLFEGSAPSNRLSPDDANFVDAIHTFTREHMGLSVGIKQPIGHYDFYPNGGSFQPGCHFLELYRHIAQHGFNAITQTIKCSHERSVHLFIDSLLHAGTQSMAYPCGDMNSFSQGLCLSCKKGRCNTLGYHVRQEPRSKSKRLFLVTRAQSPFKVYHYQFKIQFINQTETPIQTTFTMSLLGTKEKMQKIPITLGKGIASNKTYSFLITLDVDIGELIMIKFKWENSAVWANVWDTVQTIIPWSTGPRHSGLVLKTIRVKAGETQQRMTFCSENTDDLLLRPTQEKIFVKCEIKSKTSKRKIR
- Procedure text: HL assay: hepatic lipase activity with fluorescent substrate A10070 in DMPG vesicles
- Format: biochemical
Reported endpoint: IC50

Reference set (3 entries):
Give hepatic lipase (HL) (Homo sapiens (Human)) IC50 for CS(=O)(=O)C(C(=O)NCCS(N)(=O)=O)c1nc2ccc(-c3ccc(F)cc3)cc2s1 (stereo not shown)
< 10 nM

Item: NS(=O)(=O)CCNC(=O)C(c1nc2c(F)cc(-c3ccccc3)cc2s1)S(=O)(=O)Cc1ccccc1 (stereo not shown)
22 nM

Moving on to the next compound: CO[C@H]1CCN(C(=O)c2ccc(-c3ccc4nc(C(C(=O)NCCS(N)(=O)=O)S(=O)(=O)Cc5ccc(OC(F)(F)F)cc5)sc4c3)cc2)C1 (stereo partly shown)
26.7 nM

--- query ---
Enter reported IC50 observed with hepatic lipase (HL) (Homo sapiens (Human)) for COCC(C)(C)NC(=O)c1ccc(-c2ccc3nc(C(C(=O)NCCS(N)(=O)=O)S(=O)(=O)CC4CC4)sc3c2)cc1 (stereo not shown)
17.6 nM
